tested on: SK-OV-3 ovarian; assay: NCI-60 one-dose screen, 48 h (100 = growth as untreated, 0 = no growth, -100 = all killed); conditions: 10 µM
The panel holds about 83,000 compounds, 20% with a hit somewhere; the sample as a whole holds those more often.
Exercise: for every item that follows, state its recorded growth.
One number for each entry, in %.

CN(C)CCC1(c2ccccc2)CCN(C)C1=O (centres undefined) :: 100
CN(C)CCOc1ccccc1NC1=C(Cl)C(=O)C(Nc2ccccc2OCCN(C)C)=C(Cl)C1=O :: 119

Please state, for each entry, its recorded growth.
1. CCOC(=O)c1cocc1C(=O)O
2. O=c1c(Br)ccc(Br)cc1Br
3. OCC1OC(n2cnc3c(NCc4ccco4)ncnc32)C(O)C1O (centres undefined)
4. CN1CCN(C2=Nc3ccccc3Oc3ccc(Cl)cc32)CC1

106
112
-2.77
117

Hey, can you go through the list below and give me growth for every item?
1. Cn1cnc([N+](=O)[O-])c1/C=C1\Oc2ccc(Br)cc2C1=O
2. Cc1cc(C)nc(NS(=O)(=O)c2ccc(Nc3nc4nc(NCc5ccccc5)nc(-c5ccc(O)cc5)c4c(=O)[nH]3)cc2)n1
3. Nc1nc(Cn2c(-c3nonc3N)nc3ccccc32)nc(N2CCCCC2)n1
4. O=C(CCCSc1nc(-c2ccc(Cl)cc2)cc(-c2ccc(Cl)cc2)n1)NO
5. CC(C)(C)c1ccc(S(=O)(=O)N[C@H]2CC[C@H]3[C@@H]4CCc5cc(O)ccc5[C@H]4CC[C@]23C)cc1
6. COc1cc(OC)c2c(=O)c(O)c(-c3ccccc3)oc2c1

1: 89.9; 2: 35.2; 3: 79.1; 4: 14.2; 5: 87; 6: 81.1

Provide reported growth for each item, in the same order as listed.
1. O=C(Nc1nc(-c2ccccc2)nc2c1sc(=S)n2-c1ccccc1)C(F)(F)F
2. CCOC(=O)c1sc2ncnc(Nc3ccc(NC(=O)Nc4ccc(Cl)cc4)cc3)c2c1C

[91.6, 74.6]

---

test system: NCI-H460 lung; assay: NCI-60 one-dose screen, 48 h (100 = growth as untreated, 0 = no growth, -100 = all killed); conditions: 10 µM
About 83,000 compounds went through this panel and 20% of them were active in at least one assay; those are over-represented in the sample as a whole.
property: growth (%)
Numbers only, in %.

Recorded results for 2 compounds are shown here.
Cc1c2cnccc2c(C)c2c1oc1ccccc12 :: 28.4
CCOS(=O)(=O)c1c(C(C)C)cc(C(C)C)cc1C(C)C :: 103

Which growth is reported for this compound? NC1=NC(c2ccc(Cl)cc2)C2=C(N1)/C(=C/c1ccc(Cl)cc1)CCC2 (stereo not drawn)
91.3

---

system: NCI-H460 lung; experiment: NCI-60 one-dose screen, 48 h; conditions: 10 µM
Compounds without any hit were thinned out: in the full panel of roughly 83,000, 20% have a hit. Calls of active or inactive are those of the source. The calls were made as follows: active = growth percent below 10; inactive = the rest.
Choose one outcome from this list and give only that: active, inactive

Cc1cc(C)nc(NS(=O)(=O)c2ccc(Nc3nc4nc(NCc5ccccc5)nc(-c5ccc(O)cc5)c4c(=O)[nH]3)cc2)n1 :: inactive

Next item in the queue.
Hi, sorry to bother you, what did the test record for `CN(C)c1nc(N)c2nccnc2n1` ?
inactive

---

tested on: SF-539 CNS; assay: NCI-60 one-dose screen, 48 h (100 = growth as untreated, 0 = no growth, -100 = all killed); details: 10 µM
This is part of a sample that, as a whole, favours compounds with a hit. Of some 83,000 tested, about 20% had one in any assay.
Consider the following compounds; for each one, report its growth.
Give bare numbers, in %.

The following compounds have reported results that may help.
Clc1ccc(/C=C2\CCCC3C2=Nc2ccccc2NC3c2ccc(Cl)cc2)cc1 (configuration not stated) :: 92.3
COc1ccc(-c2cc(-c3cc(OC)ccc3OC)nc(N)c2C#N)cc1 :: 57.8
OCCn1cccn1 :: 98.3

Could you report growth for every entry in the following list?
1. COc1cc(-c2nn(-c3ccc(NC(=O)NCCCNC(=O)c4ccccc4)cc3)cc2-c2ccncc2)ccc1Cl
2. COc1nc2c(c(=O)n1C)CN(c1ccccc1)C(=O)C(C)N2 (configuration not stated)
3. COc1ccc2c(c1)OC(N)=C(C#N)C2c1cc(OC)c(OC)c(OC)c1 (configuration not stated)
4. C=CCSC(CC)(CC)C(=O)NC

1. -10.5
2. 96.1
3. 4.42
4. 103

---

test system: NCI-H226 lung; experiment: NCI-60 one-dose screen, 48 h (100 = growth as untreated, 0 = no growth, -100 = all killed); details: 10 µM
This is part of a sample that, as a whole, favours compounds with a hit. Of some 83,000 tested, about 20% had one in any assay.
Friendly reminder: growth below 40% is YES, at or above is NO.

As a guide, the following entries are already answered.
Clc1nc2ccccc2cc1Cn1nnc(Cc2ccccc2)n1 :: NO
COc1cc2cc(Oc3ccc(NC(=O)c4ccc(Cl)c(C(F)(F)F)c4)cc3)c(C)nc2cc1OC :: YES
O=C1NC(=O)c2c(CCCSc3nc4ccccc4c(=O)n3CCc3ccccc3)cccc21 :: NO
COc1ccc(-c2nn(-c3cccc(Cl)c3)cc2-c2cc(-c3cccs3)[nH]c(=S)n2)cc1 :: NO
CCOC(=O)c1cc(C(=O)c2cc(OC)c(OC)c(OC)c2)n2c1ccc1c3cccnc3ccc12 :: NO

Let us examine a further case.
For `CC(C)(C)OC(=O)CN1CCc2c(sc3ncnc(N/N=C/c4cccc5ccccc45)c23)C1` , is the recorded growth below the cut-off of 40%?
NO

---

tested on: TK-10 renal; experiment: NCI-60 one-dose screen, 48 h; conditions: 10 µM
Compounds without any hit were thinned out: in the full panel of roughly 83,000, 20% have a hit. Active and inactive are the calls of the source. The calls were made as follows: active = growth percent below 10; inactive = the rest.
Valid outcomes are listed here; reply with one: T = active, F = inactive

COc1ccc(-c2csc(NC(=O)c3ccc(Cc4n[nH]c(=O)c5cccnc45)cc3)n2)cc1 :: F
COc1cc2c(cc1NC(=O)C(Cl)Cl)-c1ccc(NC(=O)C(Cl)Cl)cc1C2 :: T
CCCc1cn(CC(=O)Nc2nc3ccccc3s2)nn1 :: F

Record request — test call for `CC(=O)OC/C=C(/C)C[P+](c1ccccc1)(c1ccccc1)c1ccccc1`
F

Same read-out for `O=C(CN1CCN(C(=O)c2ccccc2)CC1)Nc1ccccc1SCc1ccccc1` ?
F

Field entry: `Cc1cc(Br)nnc1Br`
F

---

test system: MDA-MB-435 melanoma; test: NCI-60 one-dose screen, 48 h; conditions: 10 µM
This is part of a sample that, as a whole, favours compounds with a hit. Of some 83,000 tested, about 20% had one in any assay. The source made the active and inactive calls. The calls were made as follows: active = growth percent below 10; inactive = the rest.
Use one of these outcomes when replying: t for active, f for inactive

Previously resolved entries follow.
COc1cc(N)c2ncccc2c1SC :: f
CCC(=O)OC1CCC2C3CCC(=O)OC3C(C)(CCC(=O)O)CC12C (stereo not drawn) :: t

Could you now consider this next compound?
I'd appreciate the recorded outcome for `Cc1ccc(Cl)cc1NC(=O)CCl` from this test.
f

---

tested on: ACHN renal; experiment: NCI-60 one-dose screen, 48 h (100 = growth as untreated, 0 = no growth, -100 = all killed); conditions: 10 µM
About 83,000 compounds went through this panel and 20% of them were active in at least one assay; those are over-represented in the sample as a whole.
property: growth (%)
Give bare numbers, in %.

For orientation, consider the following solved cases.
COc1ccc(C2=Cn3c(CCC(=O)c4nc5ccccc5[nH]4)nnc3SC2)cc1 :: 110
CCn1c2ccc(O)cc2c2c(C)c3c[n+](C)ccc3c(C)c21 :: 60.6
Cc1c(Cl)cccc1NC(=O)CCCl :: 108
CNC(=O)c1cc(Oc2ccc3c(c2)sc2nc(-c4ccc(N)cc4)cn23)ccn1 :: 29.1
COc1ccccc1-n1c(-c2sc(NC(C)=O)nc2C)n[nH]c1=S :: 108
COc1ccc(C2CC(c3cccs3)=NN2c2ccc(S(N)(=O)=O)cc2)cc1 (stereo unspecified) :: 90.2
CC(C)N(CCOc1ccc(-c2nc3sccn3c2-c2ccnc(S(C)(=O)=O)n2)cc1)C(C)C :: 101
C#CC(C)(O)[C@@H]1C[C@H](CC(=O)O)C1(C)C (stereo partly specified) :: 110

Record growth per entry; entries follow.
1. CCOc1ccccc1/C=N\N=C(\N)N/N=C/c1ccccc1OCC
2. NS(=O)(=O)Oc1ccc(NC(=O)C2CCCCCC2)cc1
3. COc1ccc(/C(C#N)=C/c2ccccc2OC)cc1
4. C(=N\Nc1ncnc2sc3c(c12)CCNC3)/c1cccc2ccccc12
5. CCc1c2c(nc3ccc(OC(=O)N4CCC(N5CCCCC5)CC4)cc13)-c1cc3c(c(=O)n1C2)COC(=O)[C@]3(O)CC
6. CC(CN(C)C)Oc1ccccc1NC1=C(Cl)C(=O)C(Nc2ccccc2OC(C)CN(C)C)=C(Cl)C1=O (stereo unspecified)
7. CC(C)(C)OC(=O)N1CCc2c(sc3ncnc(N/N=C/c4ccc(Br)cc4)c23)C1

1: 44.8; 2: 97.3; 3: 44.1; 4: 47.9; 5: 1.66; 6: -98.4; 7: 53.1

GET /values?readout=growth&system=ACHN renal&item= `COc1ccc(-c2nn(-c3cccc(Cl)c3)cc2/C=C2\NC(=S)N(c3ccc(Cl)cc3)C2=O)cc1`
51.1
